Source: patent US20250228865A1

# Test system: recombinant human CFTR carrying the premature stop codon (PTC) mutation G542X
# Experiment notes: CFTR-PTC mutant translation readthrough, Nanoluc tagged CFTR luminescence (G542X cell line)
# Type: cell-based
# Condition set: fold over 10 μM G-418; in combination with G418; G542X cell line
Measured endpoint: CFTR G542X ACTIVITY Fold 10 μM G-418

Record excerpt, results attached:
* Clc1cccc(Cl)c1COc1cnc(N2CC3(CCCOC3)C2)nc1 | A′ (A′ = ≥10X)
* CC(=O)NC[C@H]1CN(c2ncc(OCc3c(C)cccc3C(F)(F)F)cn2)CCO1 | A′ (A′ = ≥10X)
* C[C@@H](O)[C@@H]1CN(c2ncc(OCc3c(Cl)cccc3Cl)cn2)CCO1 (racemic) | A′ (A′ = ≥10X)
* NC(=O)C1CN(c2ncc(OCc3c(Cl)cccc3C(F)(F)F)cn2)CC(=O)N1 (stereo not shown) | C′ (C′ = <5X)
* OCc1cn(-c2ccc(OCc3c(Cl)cccc3Cl)cc2)cn1 | A′ (A′ = ≥10X)

Kindly give each listed record's CFTR G542X ACTIVITY Fold 10 μM G-418.
1. Cc1cccc(C(C)(F)F)c1COc1cnc(N2CCN(C(N)=O)CC2)nc1
2. Cc1cccc(C(F)(F)F)c1COc1cnc(N2CC3CC(C2)C3O)nc1 (stereo not shown)

Marked response:
A′ (A′ = ≥10X)
A′ (A′ = ≥10X)

Could you report CFTR G542X ACTIVITY Fold 10 μM G-418 for every entry in the following list?
1. OCc1cn(-c2ccc(OCc3c(Cl)cccc3C(F)(F)F)cn2)cn1
2. NCc1cc(-c2ccc(OCc3c(Cl)cccc3Cl)cn2)no1
3. OCc1cn(-c2ccc(OCc3c(Cl)cccc3C(F)(F)F)cc2)nn1

Marked response:
A′ (A′ = ≥10X)
A′ (A′ = ≥10X)
A′ (A′ = ≥10X)
